TEST TARGET: IRF5
PROTOCOL CONDITIONS: ASO, KARPAS-229, 0.44444 µM
After the bases stand the sugars from the 5' end (letter, count) and the backbone: PS all phosphorothioate, else s phosphorothioate and o phosphodiester by linkage. Methylation of C is not given here. e = 2'-O-(2-methoxyethyl) (MOE); k = constrained ethyl (cEt); d = 2'-deoxy (DNA)
MEASURE: target mRNA inhibition (%)
Your answer should be a plain number; it is taken to be in %.

Solved entries (count: 10):
GGTCTTTGAGGTCTGG (sugars k2 d9 e3 k2, PS) ... 22
CAGGTTCTTGGACTCT (sugars kekdddddddddeekk, PS) ... 34
TGTGACTGTATTACCT (sugars k3 d10 k3, PS) ... 38
GGGCACAGCGCCAGGTT (sugars kddddddddddkekekd, PS) ... 23
GGGCACAGCGCAGGTT (sugars kkddddddddkekekk, PS) ... 15
GGTTCTTGGACTCTCA (sugars kkkdddddddddkeke, PS) ... 41
TTATTTCTGCTCCAGG (sugars kkkddddddddkdkdk, PS) ... 42
GGTCTTTGAGGTCTGG (sugars kkddddddddddkeke, PS) ... 39
GGAAGTGAGTCTCAAA (sugars k3 d9 k3 e1, PS) ... 21
TCTGATATGATACCTA (sugars k3 d10 k3, PS) ... 59

Incoming: Return reported target mRNA inhibition; argument: CCAATTTTGCATTCCA (sugars kkddddddddddkeke, PS)
Outgoing: 47

Incoming: Next entry: TATTTCTGCTCCAGGT (sugars kkddddddddddkeke, PS)
Outgoing: 40

Incoming: Next entry: ACCATTCTATGCCTTT (sugars k3 d10 k3, PS)
Outgoing: 44
